# assay.comment: qHTS of small molecules that selectively kill Giardia lamblia: Hit Validation.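 Also: viability measured as ATP content by luminescence so killing lowers signal; trophozoites exposed to compounds for 48 h anaerobically at 37 °C; nearly all actives have a fitted effect of over 65% in size.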
# condition.parameters: Giardia lamblia trophozoite viability, dose-response; series mostly up to 38.3 µM
Hit rate of the full screen: of about 1,300 compounds, about 1,000 (77%) were called active. Inconclusive results (about 7%) are left out. Calls follow the shape of the dose curve; as a rule, active = well fitted inhibition curve with a large enough effect; inconclusive = small, poorly fitted or top-dose-only effect; inactive = no such curve, though single readings can be large or run the other way. The set was probably picked from earlier hits. This is one part of the list.
Labels: t = active, f = inactive

compound=CN(c1ccccc1)c1ccc([N+](=O)[O-])c2nonc12 label_value=t
compound="Fc1ccc(C2NCCc3[nH]cnc32)cc1 (stereo not drawn)" label_value=f
compound="COC12C(COC(N)=O)C3=C(C(=O)C(C)=C(N)C3=O)N1CC1C2N1C (stereo not drawn)" label_value=t

###

# assay.comment: qHTS of small molecules that selectively kill Giardia lamblia: Hit Validation.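 Also: viability measured as ATP content by luminescence so killing lowers signal; trophozoites exposed to compounds for 48 h anaerobically at 37 °C; nearly all actives have a fitted effect of over 65% in size.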
# condition.parameters: Giardia lamblia trophozoite viability, dose-response; series mostly up to 38.3 µM
Among all 1,300 compounds or so, about 1,000 (77%) were called active. Roughly 7% stayed inconclusive and do not appear here. Calls follow the shape of the dose curve; as a rule, active = well fitted inhibition curve with a large enough effect; inconclusive = small, poorly fitted or top-dose-only effect; inactive = no such curve, though single readings can be large or run the other way. The set was probably picked from earlier hits. The list shows a part of the results.
Classes used: 1 (yes) = active, 0 (no) = inactive

compound=ClCCOCCCl label_value="0 (no)"
compound=O=[N+]([O-])c1ccc(-c2ccccc2)c([As](=O)(O)O)c1 label_value="1 (yes)"
compound=O=[N+]([O-])c1cc([As](=O)(O)c2ccc(O)c([N+](=O)[O-])c2)ccc1O label_value="1 (yes)"
compound="COC(=O)C12OCC34C(CC5C(C)=C(O)C(=O)CC5(C)C3C(O)C1O)OC(=O)C(OC(=O)/C=C(\\C)C(C)C)C24 (stereo unspecified)" label_value="1 (yes)"
compound=NC(=O)c1cc(N2CC2)c([N+](=O)[O-])cc1[N+](=O)[O-] label_value="1 (yes)"
compound=C[N+]12CCC(CC1)C(=C(c1ccccc1)c1ccccc1)C2 label_value="0 (no)"
compound=NN=C(N)N label_value="0 (no)"
compound=Cc1ncc([N+](=O)[O-])n1CCOC(N)=O label_value="1 (yes)"
compound=C[C@H]1C[C@@H](C)C(=O)[C@@H]([C@H](O)CC2CC(=O)NC(=O)C2)C1 label_value="1 (yes)"
compound="C=CC1CN2CCC1CC2[C@@H](OC(=O)c1ccc(OC)cc1)c1ccnc2ccccc12 (stereo partly specified)" label_value="1 (yes)"
compound=O=[N+]([O-])c1ccc(O)c([N+](=O)[O-])c1 label_value="1 (yes)"
compound="CC1CN(c2ccc([N+](=O)[O-])c3cccnc23)CC(C)N1 (stereo unspecified)" label_value="1 (yes)"
compound=O=c1c2ccccc2nc(/C=C/c2ccc(O)cc2)n1-c1cccc(O)c1 label_value="0 (no)"
compound=COC(=O)c1nc(-c2ccc3c(n2)C(=O)C(N)=C(OC)C3=O)c(N)c(-c2ccc(OC)c(OC)c2O)c1C label_value="1 (yes)"
compound=O=c1c2ccccc2nc(/C=C/c2ccc([N+](=O)[O-])o2)n1-c1ccc(O)cc1 label_value="1 (yes)"
compound=CC1=C(N2CC2)C(=O)C(CO)=C(N2CC2)C1=O label_value="1 (yes)"
compound="CC1CC(C)(O)CC(C(O)CC2CC(=O)NC(=O)C2)C1=O (stereo unspecified)" label_value="1 (yes)"
compound="Cc1ccc(C(c2nnnn2Cc2ccccc2)N2CC=C(c3ccc(F)cc3)CC2)cc1 (stereo unspecified)" label_value="0 (no)"
compound="CC1CC(C)CC(C)C(O)C(C#N)=CC=CCC(C2CCCC2C(=O)O)OC(=O)CC(O)C(C)C1 (stereo unspecified)" label_value="1 (yes)"
compound="COC(/C(C)=C/C=C/C(C)=C/c1coc(C)n1)C(C)C1CC(O)C2(C)OC2C=CC(C)C2CC(CC(=O)O2)CC2OC2C(=O)O1 (stereo unspecified)" label_value="1 (yes)"
compound=CCCCn1c(=O)c(C(=O)NCc2ccccc2OC)c(O)c2ccccc21 label_value="0 (no)"

The values you see were collected from PubChem BioAssay AID588397.
